assay: Cytotoxicity against murine RAW264.7 cells assessed as cell viability at 10 uM relative to control; type: cell-based; conditions: mouse, read-out: Activity

smilesCode: O=C(NCCNc1cc(-c2cn(-c3ccccc3)nc2-c2cccc(O)c2)ccn1)c1ccc(O)cc1
viability at 10 µM, %: 124
//
smilesCode: O=C(NCCNc1cc(-c2cn(-c3ccccc3)nc2-c2cccc(O)c2)ccn1)c1ccc(F)cc1
viability at 10 µM, %: 127
//
smilesCode: COc1cccc(-c2nn(-c3ccccc3)cc2-c2ccnc(NCCCNC(=O)c3cccc(C(F)(F)F)c3)c2)c1
viability at 10 µM, %: 115
//
smilesCode: O=C(NCCNc1cc(-c2cn(-c3ccccc3)nc2-c2cccc(O)c2)ccn1)c1ccccc1
viability at 10 µM, %: 105
//
smilesCode: O=C(NCCCNc1cc(-c2cn(-c3ccccc3)nc2-c2cccc(O)c2)ccn1)c1cccc(C(F)(F)F)c1
viability at 10 µM, %: 123
//
smilesCode: COc1cccc(-c2nn(-c3ccccc3)cc2-c2ccnc(NCCCNC(=O)c3ccc(F)cc3)c2)c1
viability at 10 µM, %: 133
//
smilesCode: O=C(NCCCNc1cc(-c2cn(-c3ccccc3)nc2-c2cccc(O)c2)ccn1)c1ccc(O)cc1
viability at 10 µM, %: 126
//
smilesCode: COc1cccc(-c2nn(-c3ccccc3)cc2-c2ccnc(NCCNC(=O)c3ccc(F)cc3)c2)c1
viability at 10 µM, %: 136
//
smilesCode: COc1cccc(-c2nn(-c3ccccc3)cc2-c2ccnc(NCCCNC(=O)c3ccccc3)c2)c1
viability at 10 µM, %: 118
//
smilesCode: COc1ccc(C(=O)NCCNc2cc(-c3cn(-c4ccccc4)nc3-c3cccc(OC)c3)ccn2)cc1
viability at 10 µM, %: 116
//
smilesCode: COc1cccc(-c2nn(-c3ccccc3)cc2-c2ccnc(NCCNC(=O)Nc3cccc(C(F)(F)F)c3)c2)c1
viability at 10 µM, %: 165
//
smilesCode: COc1cccc(-c2nn(-c3ccccc3)cc2-c2ccnc(NCCCNC(=O)Nc3ccc(Cl)c(Cl)c3)c2)c1
viability at 10 µM, %: 121
//
smilesCode: COc1cccc(-c2nn(-c3ccccc3)cc2-c2ccnc(NCCCNC(=O)Nc3ccccc3)c2)c1
viability at 10 µM, %: 143
//
smilesCode: COc1cccc(-c2nn(-c3ccccc3)cc2-c2ccnc(NCCNC(=O)Nc3ccccc3)c2)c1
viability at 10 µM, %: 143
//
smilesCode: COc1cccc(-c2nn(-c3ccccc3)cc2-c2ccnc(NCCCNC(=O)Nc3cccc(C(F)(F)F)c3)c2)c1
viability at 10 µM, %: 124
//
smilesCode: O=C(NCCCNc1cc(-c2cn(-c3ccccc3)nc2-c2cccc(O)c2)ccn1)c1ccc(F)cc1
viability at 10 µM, %: 120
//
smilesCode: COc1cccc(-c2nn(-c3ccccc3)cc2-c2ccnc(NCCNC(=O)c3cccc(C(F)(F)F)c3)c2)c1
viability at 10 µM, %: 125

----------
assay: Cytotoxicity against murine RAW264.7 cells assessed as cell viability at 10 uM relative to control; type: cell-based; settings: mouse, read-out: Activity

smilesCode: COc1ccc(C(=O)NCCCNc2cc(-c3cn(-c4ccccc4)nc3-c3cccc(OC)c3)ccn2)cc1
unitsOfMeasure: %
viability at 10 µM: 112
//
smilesCode: COc1cccc(-c2nn(-c3ccccc3)cc2-c2ccnc(NCCNC(=O)c3ccccc3)c2)c1
unitsOfMeasure: %
viability at 10 µM: 132
//
smilesCode: O=C(NCCCNc1cc(-c2cn(-c3ccccc3)nc2-c2cccc(O)c2)ccn1)c1ccccc1
unitsOfMeasure: %
viability at 10 µM: 145
//
smilesCode: O=C(NCCNc1cc(-c2cn(-c3ccccc3)nc2-c2cccc(O)c2)ccn1)c1cccc(C(F)(F)F)c1
unitsOfMeasure: %
viability at 10 µM: 135
//
smilesCode: COc1cccc(-c2nn(-c3ccccc3)cc2-c2ccnc(NCCNC(=O)Nc3ccc(Cl)c(Cl)c3)c2)c1
unitsOfMeasure: %
viability at 10 µM: 129
